Ref: PubChem BioAssay (NCI)

System: HT29 colon
Experiment: NCI-60 one-dose screen, 48 h (100 = growth as untreated, 0 = no growth, -100 = all killed)
Conditions: 10 µM unless noted
The panel holds about 83,000 compounds, 20% with a hit somewhere; the sample as a whole holds those more often. The source made the active and inactive calls. Rule for the calls: active = growth percent below 10; inactive = the rest.
Task for the reader: assign each of the following compounds its reported growth.

input: I have this compound here, `O=C(CC(=O)Nc1cccc(C(=O)O)c1)Nc1cccc(C(=O)O)c1` , and I need its recorded growth.
output: 97.6% (inactive)

input: I have this compound here, `C#Cc1cccc(Nc2nc(C)nc3cc(NC(=O)CCl)ccc23)c1` , and I need its recorded growth.
output: -84% (active)

input: I have this compound here, `CCCCCCCCCCCCCOC(=O)c1c(C)[nH]c(/C=C2\N=C(c3ccc[nH]3)C=C2OC)c1C` , and I need its recorded growth.
output: 8.1% (active)

input: I have this compound here, `O=C(O)/C=C/C(=O)Nc1cccc(Cn2nnc3cc(Cl)c(Cl)cc32)c1` , and I need its recorded growth.
output: 110% (inactive)

input: I have this compound here, `Cc1c2cccnc2c(C)c2c1c1cc(CO)ccc1n2C` , and I need its recorded growth.
output: 16% (inactive)

input: I have this compound here, `FC(F)(F)Oc1cccc(-c2cnc3ccc(-c4ccncc4)nn23)c1` , and I need its recorded growth.
output: 14.7% (inactive)

input: I have this compound here, `COc1cccc(-c2cc(-c3cccc(Cl)c3)c(C#N)c(=O)[nH]2)c1` , and I need its recorded growth.
output: 103% (inactive)

input: I have this compound here, `CC1(C)N=C(N)N=C(N)N1c1cccc(CCc2ccccc2)c1` , and I need its recorded growth.
output: 14.3% (inactive)

input: I have this compound here, `NC(=O)c1cccc([C@@H]2O[C@H](CO)[C@@H](O)[C@H]2O)c1` , and I need its recorded growth.
output: 54% (inactive)

input: I have this compound here, `Cc1ccc(/C=C/C(=O)c2cccc(OCCCOc3cccc(C(=O)/C=C/c4ccc(C)cc4)c3)c2)cc1` , and I need its recorded growth.
output: 51.5% (inactive)

input: I have this compound here, `Cc1ccc(-c2nc(-c3cn(C)c4ncccc34)cs2)cc1` , and I need its recorded growth.
output: -68.1% [100 µM] (active)

input: I have this compound here, `COC(=O)CC[C@@H]1O[C@@H](c2ccc(F)cc2)[C@@H](O)[C@H]1O` , and I need its recorded growth.
output: 108% (inactive)

input: I have this compound here, `COc1cc(OC)c2sc(-c3ccc(-n4cncc4-c4cc(OC)c(OC)c(OC)c4)cc3)nc2c1` , and I need its recorded growth.
output: 44.5% (inactive)

input: I have this compound here, COC(=O)C(Cc1ccccc1)NC(=O)c1ccc(NC(=O)c2[nH]c(C)c(Cl)c2Cl)c(OC(C)C)c1 (centres undefined) , and I need its recorded growth.
output: 58% (inactive)

input: I have this compound here, `Cc1ccc2nc(-c3ccc(C(=O)NNC(=S)Nc4ccccc4)cc3)[nH]c2c1` , and I need its recorded growth.
output: 92.5% (inactive)

input: I have this compound here, `CCN1CCN(CCNc2nccc(-c3c(-c4ccc(F)c(OC)c4)nc4sccn34)n2)S1(=O)=O` , and I need its recorded growth.
output: 73.1% (inactive)

input: I have this compound here, Nc1nc(N)c2c(n1)NC(c1ccc(Cl)cc1)C1CCc3ccccc3C1=N2 (centres undefined) , and I need its recorded growth.
output: 41.9% (inactive)

input: I have this compound here, `Clc1c(Cl)[n+](Cc2ccc3ccccc3c2)cn1Cc1ccc2ccccc2c1` , and I need its recorded growth.
output: -69.4% (active)

input: I have this compound here, `Cn1c(=O)c2[nH]c(SCC(=O)Nc3ccc(C(=O)/C=C/c4ccccc4Cl)cc3)nc2n(C)c1=O` , and I need its recorded growth.
output: 119% (inactive)
